Hey, just so you know, these numbers are from patent US7485652B2.

Biological target: human LXR beta (Homo sapiens, UniProt P55055)
Sequence (P55055 155-460): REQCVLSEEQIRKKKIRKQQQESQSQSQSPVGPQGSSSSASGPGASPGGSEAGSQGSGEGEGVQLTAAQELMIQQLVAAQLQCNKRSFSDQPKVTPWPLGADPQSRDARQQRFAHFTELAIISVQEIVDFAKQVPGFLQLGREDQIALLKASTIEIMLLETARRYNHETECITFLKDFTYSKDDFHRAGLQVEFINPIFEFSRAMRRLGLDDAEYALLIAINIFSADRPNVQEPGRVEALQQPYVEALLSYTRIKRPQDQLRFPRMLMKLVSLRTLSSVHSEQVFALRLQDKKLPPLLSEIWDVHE
pIC50: −log10 of the molar value.
measured.parameter: pIC50

[[record]]
compound = "CC1Cc2cc(C(O)(C(F)(F)F)C(F)(F)F)ccc2N1Cc1cccc(CO)c1 (stereo not shown)"
observed_result = 8.22

